Assay: Pharmacokinetic evaluation of compounds in dogs
Format: in vivo
Settings: dog, plasma; Beagle dogs, PO, 32.1 mg/kg
measurement.label: bioavailability

Q. Tell me the measured bioavailability of C#Cc1c(F)ccc2cc(N)cc(-c3ccc4c(N5CC6CCC(C5)N6)nc(OC[C@@]56CCCN5C[C@H](F)C6)nc4c3F)c12 [Compound 014] , please.
A. 16.9%

----------
Assay: Pharmacokinetic evaluation of compounds in rats
Assay type: in vivo
Conditions: rat, plasma; SD rats, IV, 1.56 mg/kg
measurement.label: C0 (nM)
# number only, unit nM dropped from output

Q. Which C0 value belongs to `C#Cc1c(F)ccc2cc(N)cc(-c3ccc4c(N5CC6CCC(C5)N6)nc(OC[C@@]56CCCN5C[C@H](F)C6)nc4c3F)c12` ?
A. 971

----------
Test: Pharmacokinetic evaluation of compounds in mice
Assay type: in vivo, CD-1 mice
Conditions: mouse, plasma; CD-1 male mice, IV, 1.28 mg/kg
measurement.label: Vd (L/kg)
Response body: numeric value in L/kg, unit text excluded.

Q. Name the recorded Vd for `C#Cc1c(F)ccc2cc(N)cc(-c3ccc4c(N5CC6CCC(C5)N6)nc(OC[C@@]56CCCN5C[C@H](F)C6)nc4c3F)c12` .
A. 25.6

----------
Assay: Pharmacokinetic evaluation of compounds in mice
Assay type: in vivo, CD-1 mice
Conditions: mouse, plasma; CD-1 male mice, IV, 1.28 mg/kg
measurement.label: AUC(0-inf)
Please report the result as a number followed by the unit.

Q. Can you look up the measured AUC(0-inf) of `C#Cc1c(F)ccc2cc(N)cc(-c3ccc4c(N5CC6CCC(C5)N6)nc(OC[C@@]56CCCN5C[C@H](F)C6)nc4c3F)c12` for me?
A. 0.565 µM·h

----------
Experiment: Pharmacokinetic evaluation of compounds in dogs
Type: in vivo
Settings: dog, plasma; Beagle dogs, IV, 1.56 mg/kg
measurement.label: C0 (nM)
Respond numerically; units are nM and should not be typed.

Q. Sample `C#Cc1c(F)ccc2cc(N)cc(-c3ccc4c(N5CC6CCC(C5)N6)nc(OC[C@@]56CCCN5C[C@H](F)C6)nc4c3F)c12` — what was its C0?
A. 971

----------
Experiment: Pharmacokinetic evaluation of compounds in mice
Format: in vivo, CD-1 mice
Settings: mouse, plasma; CD-1 male mice, IV, 1.28 mg/kg
Method: Purpose of assay: To assay the pharmacokinetic data of the compounds in CD-1 mice in vivo. Compounds were mixed with vehicle 5% DMSO/95% (10% HP-β-CD aqueous solution), and the mixture was vortexed and sonicated to give 0.2 mg/mL-0.3 mg/mL clear solutions. […] The drug concentration was analyzed by LC-MS/MS method and pharmacokinetic parameters were calculated by Phoenix WinNonlin software (Pharsight, USA). […]
measurement.label: C0 (nM)
Give just the number in nM; leave the unit off.

Q. What value of C0 has been recorded for this entry: `C#Cc1c(F)ccc2cc(N)cc(-c3ccc4c(N5CC6CCC(C5)N6)nc(OC[C@@]56CCCN5C[C@H](F)C6)nc4c3F)c12`
A. 953

----------
Test: Pharmacokinetic evaluation of compounds in rats
Type: in vivo
Conditions: rat, plasma; SD rats, IV, 1.56 mg/kg
Protocol: Purpose of assay: To assay the pharmacokinetic data of the compounds in SD rats in vivo. Compounds were mixed with vehicle 5% DMSO/95% (10% HP-β-CD in water), and the mixture was vortexed and sonicated to give a clear solution of 0.3 mg/mL. The candidate compound solutions were administered intravenously. Whole blood was collected for a certain period of time to prepare plasma. The drug concentration was analyzed by LC-MS/MS method, and pharmacokinetic parameters were calculated. […]
measurement.label: clearance (mL/min/kg)
State just the number; it will be interpreted in mL/min/kg.

Q. Please give the measured clearance for this compound: C#Cc1c(F)ccc2cc(N)cc(-c3ccc4c(N5CC6CCC(C5)N6)nc(OC[C@@]56CCCN5C[C@H](F)C6)nc4c3F)c12 [Compound 014]
A. 271

----------
Entries annotated with measured IC50
Test system: p-ERK in AGS cells
Assay: Assay of p-ERK inhibition in AGS cells (HTRF)
Assay type: cell-based
Conditions: Homo sapiens, 3 hours incubation
Counter-ions that a name gives are not always drawn.
Just the number please, in µM, no unit attached.

Worked cases, answers included:
{"columns": ["compound", "measurement.label", "result.value"],
 "data": [
  ["Oc1cc(-c2ccc3c(N4CC5CCC(C4)N5)nc(OC[C@@]45CCCN4C[C@H](F)C5)nc3c2F)c2ccccc2c1 [Compound 005 hydrochloride]", "IC50", 0.147],
  ["CCc1c(F)ccc2cc(O)cc(-c3ccc4c(N5CC6CCC(C5)N6)nc(OC[C@@]56CCCN5C[C@H](F)C6)nc4c3F)c12 [Compound 006 hydrochloride]", "IC50", 0.0671],
  ["Nc1nc2c(-c3c(Cl)cc4c(N5CC6CCC(C5)N6)nc(OC[C@@]56CCCN5C[C@H](F)C6)nc4c3F)ccc(F)c2s1", "IC50", 0.0314]
]}

// next item, IC50 requested
Q. Entry Oc1cc(-c2c(Cl)cc3c(N4CC5CCC(C4)N5)nc(OC[C@@]45CCCN4C[C@H](F)C5)nc3c2F)c2ccccc2c1 [Compound 001 formate] : reported IC50 = ?
A. 0.292

----------
Assay: Pharmacokinetic evaluation of compounds in rats
Type: in vivo
Details: rat, plasma; SD rats, PO, 31.7 mg/kg
measurement.label: bioavailability

Q. # lookup: bioavailability of C#Cc1c(F)ccc2cc(N)cc(-c3ccc4c(N5CC6CCC(C5)N6)nc(OC[C@@]56CCCN5C[C@H](F)C6)nc4c3F)c12 [Compound 014]
A. 12.5%

----------
Experiment: Pharmacokinetic evaluation of compounds in dogs
Type: in vivo
Conditions: dog, plasma; Beagle dogs, PO, 32.1 mg/kg
measurement.label: Cmax (nM)
Numbers only here, please. The scale is nM.

Q. What value of Cmax has been recorded for this entry: `C#Cc1c(F)ccc2cc(N)cc(-c3ccc4c(N5CC6CCC(C5)N6)nc(OC[C@@]56CCCN5C[C@H](F)C6)nc4c3F)c12`
A. 439

----------
Experiment: Pharmacokinetic evaluation of compounds in dogs
Format: in vivo
Conditions: dog, plasma; Beagle dogs, PO, 32.1 mg/kg
measurement.label: half-life (h)
Hi! Could you send only the number? It should be in h, unit omitted.

Q. Fill in: half-life of `C#Cc1c(F)ccc2cc(N)cc(-c3ccc4c(N5CC6CCC(C5)N6)nc(OC[C@@]56CCCN5C[C@H](F)C6)nc4c3F)c12` is ___
A. 10.8

----------
Assay: Pharmacokinetic evaluation of compounds in dogs
Format: in vivo
Settings: dog, plasma; Beagle dogs, IV, 1.56 mg/kg
measurement.label: clearance (mL/min/kg)
Express it in mL/min/kg; write the number only.

Q. What does the data say about its clearance? Entry: C#Cc1c(F)ccc2cc(N)cc(-c3ccc4c(N5CC6CCC(C5)N6)nc(OC[C@@]56CCCN5C[C@H](F)C6)nc4c3F)c12 [Compound 014]
A. 271

----------
Assay: Pharmacokinetic evaluation of compounds in dogs
Type: in vivo
Conditions: dog, plasma; Beagle dogs, IV, 1.56 mg/kg
Experimental: Purpose of assay: To assay the pharmacokinetic data of the compounds in Beagle dogs in vivo. Compound 014 was mixed with vehicle 20% DMSO/60% PEG400/20% (10% HP-β-CD in water), and the mixture was vortexed and sonicated to give a clear solution of 4 mg/mL. The candidate compound solutions were administered intravenously. Whole blood was collected for a certain period of time to prepare plasma. The drug concentration was analyzed by LC-MS/MS method, and pharmacokinetic parameters were calculated. […]
measurement.label: AUC(0-inf) (µM·h)
Express it in µM·h; write the number only.

Q. Would you mind telling me what AUC(0-inf) value was observed for C#Cc1c(F)ccc2cc(N)cc(-c3ccc4c(N5CC6CCC(C5)N6)nc(OC[C@@]56CCCN5C[C@H](F)C6)nc4c3F)c12 [Compound 014] ?
A. 0.15

----------
Experiment: Pharmacokinetic evaluation of compounds in rats
Type: in vivo
Details: rat, plasma; SD rats, IV, 1.56 mg/kg
measurement.label: Vd (L/kg)
Write the value in L/kg as a bare number.

Q. Reported Vd, compound `C#Cc1c(F)ccc2cc(N)cc(-c3ccc4c(N5CC6CCC(C5)N6)nc(OC[C@@]56CCCN5C[C@H](F)C6)nc4c3F)c12` : ____
A. 5.89

----------
Tested on: p-ERK in GP2D cells
Assay: Assay of p-ERK inhibition in GP2D cells (HTRF)
Assay type: cell-based
Conditions: Homo sapiens, 1 hour incubation
Structures can show the parent of a compound that is named as a salt.
# pIC50 listing for each entry below
Remember the convention: pIC50 equals -log10 of concentration in molar.

Consider the following illustrative entries.
{"columns": ["compound", "pIC50"],
 "data": [
  ["Oc1cc(-c2ccc3c(N4CC5CCC(C4)N5)nc(OC[C@@]45CCCN4C[C@H](F)C5)nc3c2F)c2c(F)c(F)ccc2c1 [Compound 011 hydrochloride]", 10.80],
  ["Cc1cc(N)nc(-c2c(Cl)cc3c(N4CC5CCC(C4)N5)nc(OC[C@@]45CCCN4C[C@H](F)C5)nc3c2F)c1C(F)(F)F [Compound 018 trifluoroacetate]", 8.80],
  ["C#Cc1c(F)ccc2cc(O)cc(-c3ccc4c(N5CC6CCC(C5)N6)nc(OC[C@@]56CCCN5C[C@H](F)C6)nc4c3F)c12 [Compound 010 hydrochloride]", 10.26]
]}

Q. Reported pIC50, compound Cc1cc(N)nc(-c2ccc3c(N4CC5CCC(C4)N5)nc(OC[C@@]45CCCN4C[C@H](F)C5)nc3c2F)c1C(F)(F)F [Compound 019 hydrochloride] : ____
A. 7.67
